Biological target: T1, GFP-9S library array, motif 4 ND N98V;D124S (synthetic construct, N98V;D124S)
T1 chain: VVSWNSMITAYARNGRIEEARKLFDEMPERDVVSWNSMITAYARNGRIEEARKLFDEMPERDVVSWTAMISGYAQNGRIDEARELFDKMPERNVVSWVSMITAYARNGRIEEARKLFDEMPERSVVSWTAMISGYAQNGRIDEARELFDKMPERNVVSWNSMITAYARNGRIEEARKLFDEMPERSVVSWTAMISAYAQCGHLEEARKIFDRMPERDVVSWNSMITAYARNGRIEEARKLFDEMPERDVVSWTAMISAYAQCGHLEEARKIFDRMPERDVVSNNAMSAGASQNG
Test: high-throughput RNA pulldown from lysate on Ni-NTA beads; HRP: 50 mM Tris pH 8, 150 mM NaCl, 1 mM beta-mercaptoethanol, 50 ug/ml BSA, 3 ug/ml yeast RNA, 0.5% heparin; ITC and FP: Tris pH 8, 200 mM KCl, 5% glycerol; MST: 50 mM Tris pH 8, 200 mM NaCl, 1 mM DTT, BSA, heparin, 0.05% Tween 20
Conditions: tags: N-terminal His-eGFP; label: 5' Cy5
Readout Type: Kd
Field note: include the unit after the figure.

// returns reported Kd for input AUUAGACGUGA (ssRNA) [Cy5-rpoA-G]
50.4 nM

More entries:
Return reported Kd; argument: AUUACACGUGA (ssRNA) [Cy5-rpoA]
69.5 nM
